- MEASURED_TARGET: CCKA (Cavia porcellus, UniProt Q63931)
- Construct: The pancreatata were removed from male guinea-pigs (200-300g; Dunkin Hartley); from tissue; host or cells: pancreas membranes of male Dunkin Hartley guinea-pigs
- Sequence (Q63931 whole entry): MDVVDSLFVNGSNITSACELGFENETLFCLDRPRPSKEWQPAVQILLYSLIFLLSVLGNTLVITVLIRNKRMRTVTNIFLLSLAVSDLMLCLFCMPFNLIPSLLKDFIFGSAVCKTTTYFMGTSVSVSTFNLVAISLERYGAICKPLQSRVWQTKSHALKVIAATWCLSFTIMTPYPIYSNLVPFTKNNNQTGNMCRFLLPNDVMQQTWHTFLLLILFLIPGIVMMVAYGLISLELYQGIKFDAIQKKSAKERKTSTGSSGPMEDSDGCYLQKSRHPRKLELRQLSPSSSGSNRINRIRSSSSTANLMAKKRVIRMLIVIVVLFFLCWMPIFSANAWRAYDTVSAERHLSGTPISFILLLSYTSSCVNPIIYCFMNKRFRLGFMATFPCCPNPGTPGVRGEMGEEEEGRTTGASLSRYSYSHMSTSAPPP
- PROTOCOL_TEXT: CCKA binding assay in guinea-pig pancreas membranes
- REPORTED_CONDITIONS: [125I]-CCK8(S) 200pM, containing 0.375 µM PD134,308, read-out: CCKA pKi (converted)
Quick list: Ki per entry.
Numeric answer only, unit nM assumed.

// below: answered compounds
COMPOUND	Ki [nM]
O=C(O)c1cc(NC(=O)[C@@H](CCc2ccccc2)NC(=O)C2C3c4ccccc4C(c4ccccc43)C2C(=O)NCC23CC4CC(CC(C4)C2)C3)cc(C(=O)O)c1 (stereo partly drawn) [Example 37]	2000
O=C(O)c1cc(NC(=O)[C@H](Cc2ccc(Cl)cc2)NC(=O)C2C3c4ccccc4C(c4ccccc43)C2C(=O)NCC23CC4CC(CC(C4)C2)C3)cc(C(=O)O)c1 (single isomer, unassigned) [Example 11]	50.1

Value of measured Ki for the entry O=C(O)c1cc(NC(=O)[C@H](CC2CCCCC2)NC(=O)C2C3c4ccccc4C(c4ccccc43)C2C(=O)NCC23CC4CC(CC(C4)C2)C3)cc(C(=O)O)c1 (stereo partly drawn) [Example 5] : 1000

---

- MEASURED_TARGET: gastrin (Rattus norvegicus, UniProt P30553)
- Construct: The stomach was excised and flushed with ca. 1 ml of unbuffered physiological saline solution; from tissue; host or cells: isolated whole stomach of immature rats (33-50 g, ca. 21 days old)
- Sequence (P30553 whole entry): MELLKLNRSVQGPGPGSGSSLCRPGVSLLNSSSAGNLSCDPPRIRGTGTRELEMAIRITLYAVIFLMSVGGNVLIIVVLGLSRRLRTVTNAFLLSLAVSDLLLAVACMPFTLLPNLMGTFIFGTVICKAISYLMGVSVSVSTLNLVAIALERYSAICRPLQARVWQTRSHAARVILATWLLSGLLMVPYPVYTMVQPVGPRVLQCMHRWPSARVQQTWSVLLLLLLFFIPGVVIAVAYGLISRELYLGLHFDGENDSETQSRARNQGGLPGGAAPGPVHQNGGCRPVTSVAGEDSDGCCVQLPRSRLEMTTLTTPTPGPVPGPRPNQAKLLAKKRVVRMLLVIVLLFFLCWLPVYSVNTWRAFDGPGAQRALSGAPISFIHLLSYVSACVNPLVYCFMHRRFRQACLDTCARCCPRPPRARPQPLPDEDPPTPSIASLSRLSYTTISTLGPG
- PROTOCOL_TEXT: gastrin antagonist activity in an immature rat stomach assay
- REPORTED_CONDITIONS: isolated immature rat stomach, cumulative pentagastrin dose-response curves, acid secretion; read-out: Gastrin pKB (converted)
# cutoff 30 nM applies to Kb; >= gives Met, < gives Not met

QUERY: Does the compound O=C(O)c1cc(NC(=O)[C@H](Cc2ccccc2F)NC(=O)C2C3c4ccccc4C(c4ccccc43)C2C(=O)NCC23CC4CC(CC(C4)C2)C3)cc(C(=O)O)c1 (single isomer, unassigned) [Example 17] have recorded Kb that is 30 nM or more?
RESULT: Not met

QUERY: Given O=C(O)c1cc(NC(=O)[C@H](Cc2ccccc2)NC(=O)C2C3c4ccccc4C(c4ccccc43)C2C(=O)NCC2CCCCC2)cc(C(=O)O)c1 (single isomer, unassigned) [Example 31] , state whether its Kb is at least 30 nM.
RESULT: Met

QUERY: Is the recorded value of Kb equal to or greater than 30 nM for this compound? O=C(O)c1cc(NC(=O)[C@H](Cc2ccccc2)NC(=O)C2C3c4ccccc4C(c4ccccc43)C2C(=O)NCc2cccc3ccccc23)cc(C(=O)O)c1 (single isomer, unassigned)
RESULT: Not met

QUERY: I'd appreciate it if you could say whether CN(C(=O)C1C2c3ccccc3C(c3ccccc32)C1C(=O)NCC12CC3CC(CC(C3)C1)C2)[C@@H](Cc1ccccc1)C(=O)Nc1cc(C(=O)O)cc(C(=O)O)c1 (some centres unmarked) has Kb at least equal to 30 nM.
RESULT: Met

QUERY: Exam item: decide whether the reported Kb for O=C(O)c1cc(NC(=O)[C@H](Cc2ccc(F)cc2)NC(=O)C2C3c4ccccc4C(c4ccccc43)C2C(=O)NCC23CC4CC(CC(C4)C2)C3)cc(C(=O)O)c1 (single isomer, unassigned) [Example 8] is at least 30 nM.
RESULT: Not met

The reported measurements were obtained from patent EP0719251B1.
